assay: yeast display, Sf9 membrane polyspecificity reagent, FACS + sequencing; frameworks hold sequencing errors

residues | polyreactivity (PSR sort gate)
QVQLVETGGGLVQAGGSLRLSCAASGFNLPIYAMRCYRQPPGKEREFVAAITWTGGSTYYADSVKGRFTISRDNAKNTVYLQMNSLKPEDTAVYYCNAEGPSYYYIIYDYWGQGTQVTVSS | high polyreactivity
QVQLVESGGGLVQAGGSLRLSCAASGPIFYRYAMGWYRQAPGKERELVAAISRGGRTYYADSVKGRFTISRDNAKNTVYLQMNRLKPEDTAVYYCATTYSLGSWGYDYWGQGTQVTVSS | high polyreactivity

* * *

assay: yeast display, Sf9 membrane polyspecificity reagent, FACS + sequencing; frameworks hold sequencing errors
quantity measured: polyreactivity (PSR sort gate)

Examples with answers:
residues | polyreactivity (PSR sort gate)
QVQLVESGGGLVQAGGSLRLSCAASGSTFDYYAMGWYRQAPGKERELVAAISSTDGSTFYADSVKGRFTISRDNAKNTVYLQMNSLKPEDTAVYYCAVVGYYYPWPNGYDYWGQGTQVTVSS | low polyreactivity
QVQHVESGGGLVQAGGSLRLSCAASGSIFGKYAMGWYRQAPGKERELVARISRSSGSTYYADSVKGRFTISRDNAKNTVYLQMNSLKPEDTAVYYCAARAYLNQARPKYGYSYDYWGQGTQVTVSS | high polyreactivity
QVQLVESGGGLVQAGGSLRLSCAASGGTFDVYTMGWYRQAPGKERELVAVISSSGGGTYYADSVKGRFTISRDNAKNTVYLQMNSLKPEDTAVYYCAARRKRQNTYYPYYYWGQGTQVTVSS | high polyreactivity
QVQLVESGGGLVQAGGSLRLSCAASGNNFSRYSMGCSRPAPGKERELVASISRGGRTNYADSVKGRFTISLDNAKNTVYLQMNSLNPEDTAVYYCALGGNGYWHQSGPYPYNYWGQGTQVTVSS | high polyreactivity

[Q] For the sequence shown here, "QVQLVESGGGLVQAGGSLRLSCAASGRIFYKSAMGWSRQAPGKEREWVAAITTSGGSTYYADSVKGRFTISRDNAKNTVYLQMNSLKPEDTAVYYCAARSAYGTQRLYYWGQGTQVTVSS" , give the reported polyreactivity (PSR sort gate).
[A] high polyreactivity

[Q] For the sequence shown here, "QVQLVETGGGLVQAGGSLRLSCAASGIIFPFYAMGWYRQAPGKERELVAAITSDGNTNYADSVKGRFTISRDNAKNTVYLQMNSLKPEDTAVYYCNAETQYGVLSWHSTRHDYWGQGTQVTVSS" , give the reported polyreactivity (PSR sort gate).
[A] low polyreactivity

[Q] For the sequence shown here, "QVQLVESGGGLVQAGGSLRLSCAASGRIFNHNDMGWYRQAPGKERELVAAIDGSDSSTYYADSVKGRFTISRDNAKNTVYLQMNSLKTEDTAVYYCNADTNWLYTTGKYDYWGQGTQVTVSS" , give the reported polyreactivity (PSR sort gate).
[A] low polyreactivity
